System: HOP-92 NSCLC
Assay: NCI-60 one-dose screen, 48 h
Settings: 10 µM
Protocol: Growth inhibition of the HOP-92 human Non-Small Cell Lung tumor cell line is measured as a screen for anti-cancer activity. Cells are grown in 96 well plates and exposed to the test compound for 48 hours. Compounds are tested at a single concentration, which is 10^-5 M for most compounds. The reported endpoint is percent growth (GI% or GIPRCNT), where numbers from 0 - 100% represent growth inhibition, and numbers from -100% - 0 represent cell death. […]
About 83,000 compounds went through this panel and 20% of them were active in at least one assay; those are over-represented in the sample as a whole. Calls of active or inactive are those of the source. How the source made its calls: active means growth percent below 10; inactive means the rest.
Just give me one of these, please: active, inactive

C#CCOc1cc(N(CC)CC)ccc1C(C(=O)NC(C)(C)C)N(C(=O)C1CCc2cc(F)ccc2O1)c1ccc(F)cc1F (stereo not drawn) = inactive
COc1ccc(NCc2cn(-c3ccc(C(=O)O)cc3)nc2-c2ccc(F)cc2)cc1C(F)(F)F = inactive
O=C(c1ccc(F)cc1)C(c1c[nH]c2ccccc12)c1c[nH]c2ccccc12 = inactive

Next compound, please.
Query :: Per the assay record, what outcome was assigned to "COc1ccc(OC)c(-n2cc(C#N)c(N)c2C(=O)c2ccc(Cl)cc2Cl)c1" ?
Result :: inactive

----------
Please go through the items and note down their growth.
tested on: IGROV1 ovarian; assay: NCI-60 one-dose screen, 48 h (100 = growth as untreated, 0 = no growth, -100 = all killed); details: 10 µM
This is part of a sample that, as a whole, favours compounds with a hit. Of some 83,000 tested, about 20% had one in any assay. Active and inactive are the calls of the source. The calls were made as follows: active = growth percent below 10; inactive = the rest.

Your task in this section: give growth for each listed record.
1. COc1ccc(C2c3sc4ccc(C)cc4c3Oc3nc(N)nc(N)c32)cc1 (configuration not stated)
2. Cn1cc(/C=C(/SS/C(=C/c2cn(C)c3cccc(C(=O)O)c23)C(=O)O)C(=O)O)c2c(C(=O)O)cccc21
3. COc1ccc(-n2c(SCC(=O)NNS(=O)(=O)c3ccccc3)nc3ccc(Cl)cc3c2=O)cc1
4. COc1ccc(NCc2cn(-c3ccc(C(=O)O)cc3)nc2-c2ccc(F)cc2)cc1C(F)(F)F
5. CC1(C)CC(=O)C2=C(C1)N(Cc1ccc(C(=O)O)cc1)C1=C(C(=O)CC(C)(C)C1)C2c1ccc(Cl)cc1
6. Cc1ccc2c(c1)C(=O)/C(=C/c1ccc([N+](=O)[O-])cc1)S2

Result ::
79.1% (inactive)
113% (inactive)
103% (inactive)
49.9% (inactive)
107% (inactive)
63.8% (inactive)

Query :: Complete the entry with growth for CCOC(=O)c1ccc(NC(=O)CSC(CC(=O)c2sc(Nc3ccccn3)nc2C)c2ccccc2F)cc1 (configuration not stated)
Result :: 14% (inactive)

----------
tested on: MDA-MB-468 breast; assay: NCI-60 one-dose screen, 48 h; settings: 10 µM unless noted
This is part of a sample that, as a whole, favours compounds with a hit. Of some 83,000 tested, about 20% had one in any assay. Activity calls are given as the source filed them. Rule for the calls: active = growth percent below 10; inactive = the rest.
Just give me one of these, please: t = active, f = inactive

Solved entries (count: 2):
CC(=O)c1nc2ccccc2n1CCN1CCN(C)CC1 = t
CC1=C(Cl)C(=O)c2cc(C)ccc2C1=O = f

Query :: Per the assay record, what outcome was assigned to C=C1CC2(OC1=O)C(=O)Nc1ccccc12 (configuration not stated) ?
Result :: t

Query :: Per the assay record, what outcome was assigned to CCC12CCC[N+]3([O-])CCC4(C(=Nc5ccccc54)C(O)(C(=O)OC)C1)C23 (configuration not stated) ?
Result :: f

Query :: Per the assay record, what outcome was assigned to "C=C1C(=O)O[C@H]2[C@H]1CC/C(CNC(=O)c1c[nH]c3ccc(F)cc13)=C\CC[C@@]1(C)O[C@@H]21" ?
Result :: t

Query :: Per the assay record, what outcome was assigned to COc1ccc(C2C3=C(COC3=O)N(CCO)c3cc(OC)c(OC)cc32)cc1 (configuration not stated) ?
Result :: f

Query :: Per the assay record, what outcome was assigned to "CCOC(=O)c1c(C(F)(F)F)n([O-])c2ccc(OC)cc2[n+]1=O" ?
Result :: t

Query :: Per the assay record, what outcome was assigned to "COc1ccc(CN2CCc3c(Cl)nc(N)nc3C2=O)c(OC)c1" ?
Result :: f

Query :: Per the assay record, what outcome was assigned to "CC(C)c1ccc(C(=O)Nc2nc3ccc(O)c(CN(C)C)c3s2)cc1" ?
Result :: f

Query :: Per the assay record, what outcome was assigned to CCCCCCC[C@@H](O)CC(=O)N[C@H](CCCCN)C(=O)N[C@H](Cc1c[nH]c2ccccc12)C(=O)NC(CCCCN)C(=O)N[C@H](CC(C)C)C(=O)N[C@H](Cc1ccccc1)C(=O)N[C@H](CCCCN)C(=O)N[C@H](CCCCN)C(=O)N[C@H](CC(C)C)C(=O)N1CCCC1C(=O)N[C@H](CCCCN)C(=O)N[C@H](Cc1ccccc1)C(=O)N[C@H](CC(C)C)C(=O)N[C@H](Cc1c[nH]cn1)C(=O)N[C@H](CC(C)C)C(=O)N[C@H](C)C(=O)N[C@H](CCCCN)C(=O)N[C@H](CCCCN)C(=O)N[C@H](Cc1ccccc1)C(=O)O (some centres not stated) ?
Result :: t

----------
Please go through the items and note down their growth.
System: MDA-MB-468 breast
Assay: NCI-60 one-dose screen, 48 h (100 = growth as untreated, 0 = no growth, -100 = all killed)
Conditions: 10 µM unless noted
Description: Growth inhibition of the MDA-MB-468 human Breast tumor cell line is measured as a screen for anti-cancer activity. Cells are grown in 96 well plates and exposed to the test compound for 48 hours. Compounds are tested at a single concentration, which is 10^-5 M for most compounds. The reported endpoint is percent growth (GI% or GIPRCNT), where numbers from 0 - 100% represent growth inhibition, and numbers from -100% - 0 represent cell death. […]
The panel holds about 83,000 compounds, 20% with a hit somewhere; the sample as a whole holds those more often.
Numbers only, in %.

The examples below pair each entry with its known result.
C(/C=C/c1ccccc1)=Nc1ccc(CCc2ccc(N=C/C=C/c3ccccc3)cc2)cc1 = 83.3
NC(=O)CC1C=CCC1 (centres undefined) = 111
O=C(Nc1ccc(-n2cc(-c3ccncc3)c(-c3ccc(O)c(Cl)c3)n2)cc1)c1ccc(Cl)c(C(F)(F)F)c1 = 27.5

Could you now look at the following molecule, please?
Query :: Complete the entry with growth for C#CC(F)(F)[C@]1(O)CCC2C3CCC4=CC(=O)CCC4=C3[C@@H](c3ccc(N(C)C)cc3)C[C@@]21C (some centres undefined)
Result :: 101

----------
tested on: MDA-MB-468 breast; assay: NCI-60 one-dose screen, 48 h (100 = growth as untreated, 0 = no growth, -100 = all killed); conditions: 10 µM unless noted
Compounds without any hit were thinned out: in the full panel of roughly 83,000, 20% have a hit.
metric: growth (%)
Answers are plain numbers, in %.

Nc1ccc(N2CCOCC2)cc1 = 96.9

Your task in this section: give growth for each listed record.
1. NC1C(N)C(N)C1N (stereo unspecified)
2. COc1ccc(Nc2nc(SC)nc(-c3cccc([N+](=O)[O-])c3)c2C#N)cc1

Result ::
[122, 54.7]

Your task in this section: give growth for each listed record.
1. COc1ccc(S(=O)(=O)NCCCNc2nccc(-c3cn(C(C)(C)C)nc3-c3ccc(Cl)c(OC)c3)n2)cc1
2. Fc1ccc2nc3c(cc2c1)CSc1nnc(-c2ccc[nH]c2=S)n1N3
3. COc1ccc(/C=N/NC(=O)c2ccc(-n3cc(-c4ccccc4)nn3)cc2)cc1OC

Result ::
1. 76.8
2. 105
3. 101

----------
tested on: MDA-MB-468 breast; assay: NCI-60 one-dose screen, 48 h; details: 10 µM unless noted
Compounds without any hit were thinned out: in the full panel of roughly 83,000, 20% have a hit. The source made the active and inactive calls. The calls were made as follows: active = growth percent below 10; inactive = the rest.
Just give me one of these, please: y for active, n for inactive

Solved entries (count: 3):
COc1ccc(C(=O)COC(=O)[C@H](C[Se][Se]C[C@H](NC(=O)c2ccc(Br)cc2F)C(=O)OCC(=O)c2ccc(OC)cc2)NC(=O)c2ccc(Br)cc2F)cc1 = y
O=C(/C=C/c1cccc2ccccc12)c1ccc(NC(=O)c2ccccc2CN2C(=O)c3ccccc3C2=O)cc1 = n
COc1ccc(/C=C/C(c2cc(OC)c(OC)c(OC)c2)n2ccnc2)cc1O (stereo not given) = n

Query :: Per the assay record, what outcome was assigned to "COc1cccc(COc2ccc(/C=C3/C(=O)Nc4cc(Cl)ccc43)cc2)c1" ?
Result :: n

Query :: Per the assay record, what outcome was assigned to "O=c1[nH]c2ccccc2cc1CSc1ccccc1Nc1nccc(-c2ccc(C(F)(F)F)cc2)n1" ?
Result :: n

Query :: Per the assay record, what outcome was assigned to "Cc1nc2c(=O)[nH]c(SCC(=O)Nc3cccc(F)c3)nc2[nH]c1=O" ?
Result :: n

Query :: Per the assay record, what outcome was assigned to "N#Cc1cnn2c(-c3ccc(Cl)cc3)nc(NCCc3ccccc3)nc12" ?
Result :: n

Query :: Per the assay record, what outcome was assigned to CC1OC(C(=O)N2CCN(CCO)CC2)CC1COC1CCCCC1 (stereo not given) ?
Result :: n

Query :: Per the assay record, what outcome was assigned to "COc1ccc(-c2nn(-c3cccc(NC(=O)c4cccc(C(F)(F)F)c4)c3)cc2-c2ccncc2)cc1Cl" ?
Result :: n

Query :: Per the assay record, what outcome was assigned to "O=C(Nc1ccc(-n2cc(-c3ccncc3)c(-c3ccc(Cl)c(O)c3)n2)cc1)c1ccc(Cl)c(Cl)c1" ?
Result :: n
